- methodSummary: Plasma protein binding
- Assay type: in vitro ADME
- assaySetup: read-out: Bound to plasma proteins

{"molecule": "[H]/N=C(/N)c1ccc(NCc2nc3cc(C(=O)N(CCC(=O)O)c4ccccn4)ccc3n2C)cc1", "fraction unbound": "0.65 to 0.75"}
